Values were extracted from the supplement of paper PMC10567573.

Readings of protein stability index for the listed variants
B1: USP39 (parent)
chain: FVEKNPTIVNFPITNVDLREYLSE

# Variants of: B1
# assay_procedure: protein stability index of a GFP-peptide fusion (GPS, HEK-293T) (PSI 1-6); higher = more stable;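 note: lentivirally expressed fusions sorted by FACS into six bins by GFP to DsRed ratio, PSI derived from sequencing read proportions per bin multiplied by bin number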
# recorded_conditions: c terminus: a fixed tail appended
measured_quantity: protein stability index

> print(dat)
   variant  test.value
1     N15L        2.05
2     N10A        2.02
3      T7R        1.98
4      N5H        1.96
5     Y21F        2.04
6      T7E           2
7      K4N        2.05
8     L22T        2.03
